Values were extracted from patent US5362497A.

Test: TRH concentration in plasma after transdermal application (radioimmunoassay)
Format: in vivo, SD rats
Conditions: rat, plasma, topical or ocular; Example 6 composition; read-out: time of maximum concentration in the plasma
experimental.endpoint: Tmax

>>> print(df.to_string())
                                   compound  assay_value
0  NC(=O)[C@@H]1CCCN1C(=O)[C@H](Cc1cnc[nH]1)NC(=O)[C@@H]1CCC(=O)N1 [TRH, L-pyroglutamyl-L-histidyl-L-prolinamide]          4 h

---

Assay: TRH concentration in plasma after transdermal application (radioimmunoassay)
Type: in vivo, SD rats
Conditions: rat, plasma, topical or ocular; comparison: 10% polyvinyl alcohol gel pH 4, 2% TRH (16 mg), 8 cm^2; 1 h after administration
Method: The above transdermal therapeutic composition was put on a clipped abdomen of male SD rats (7-week-old, 240 to 270 g, 4 heads) and fixed with a surgical tape. After 0.5, 1, 2, 4, 6 and 24 hours, the blood was collected from the tail vein. […] The TRH concentration in the plasma was determined by the below-mentioned radioimmunoassay. […] The supernatant was removed by centrifugation at 3000 rpm, and the radioactivity of the precipitate was determined by a γ counter. […]
experimental.endpoint: concentration at 1 h (ng/mL)

>>> df
                                   compound  assay_value
0  NC(=O)[C@@H]1CCCN1C(=O)[C@H](Cc1cnc[nH]1)NC(=O)[C@@H]1CCC(=O)N1 [TRH, L-pyroglutamyl-L-histidyl-L-prolinamide]            8

---

Assay: Vinpocetine concentration in plasma after transdermal application (HPLC)
Assay type: in vivo, SD rats
Details: rat, plasma, topical or ocular; Example 7 composition, 4 h after administration
experimental.endpoint: concentration at 4 h (ng/mL)

                              record_smiles  assay_value
0  CCOC(=O)C1=C[C@]2(CC)CCCN3CCc4c(n1c1ccccc41)[C@@H]32         60.7

---

Test: Molsidomine concentration in plasma after transdermal application (HPLC)
Type: in vivo, SD rats
Details: rat, plasma, topical or ocular; Example 5 composition, 6 h after administration
experimental.endpoint: concentration at 6 h (µg/mL)

>>> print(df.to_string())
                      record_smiles  assay_value
0  CCOC(=O)[N-]c1cn(N2CCOCC2)n[o+]1        0.322

---

Assay: TRH concentration in plasma after transdermal application (radioimmunoassay)
Type: in vivo, SD rats
Conditions: rat, plasma, topical or ocular; Example 6 composition, 6 h after administration
experimental.endpoint: concentration at 6 h (ng/mL)

>>> print(df.to_string())
                                   compound  assay_value
0  NC(=O)[C@@H]1CCCN1C(=O)[C@H](Cc1cnc[nH]1)NC(=O)[C@@H]1CCC(=O)N1 [TRH, L-pyroglutamyl-L-histidyl-L-prolinamide]          326

---

Test: TRH concentration in plasma after transdermal application (radioimmunoassay)
Format: in vivo, SD rats
Settings: rat, plasma, topical or ocular; comparison: 10% polyvinyl alcohol gel pH 4, 2% TRH (16 mg), 8 cm^2; 0.5 h after administration
experimental.endpoint: concentration at 0.5 h (ng/mL)

In [3]: df
Out[3]:
                                   compound  assay_value
0  NC(=O)[C@@H]1CCCN1C(=O)[C@H](Cc1cnc[nH]1)NC(=O)[C@@H]1CCC(=O)N1 [TRH, L-pyroglutamyl-L-histidyl-L-prolinamide]          8.3

---

Assay: Vinpocetine concentration in plasma after transdermal application (HPLC)
Type: in vivo, SD rats
Conditions: rat, plasma, topical or ocular; Example 7 composition, 2 h after administration
experimental.endpoint: concentration at 2 h (ng/mL)

>>> df
                              record_smiles  experimental_endpoint  unit_abbreviation  assay_value
0  CCOC(=O)C1=C[C@]2(CC)CCCN3CCc4c(n1c1ccccc41)[C@@H]32   concentration at 2 h              ng/mL         80.1

---

Assay: Molsidomine concentration in plasma after transdermal application (HPLC)
Assay type: in vivo, SD rats
Conditions: rat, plasma, topical or ocular; Example 5 composition, 1 h after administration
experimental.endpoint: concentration at 1 h (ng/mL)

>>> df
                                   compound  assay_value
0  CCOC(=O)[N-]c1cn(N2CCOCC2)n[o+]1 [molsidomine, N-ethoxycarbonyl-3-morpholinosydnonimine]          123

---

Assay: Vinpocetine concentration in plasma after transdermal application (HPLC)
Type: in vivo, SD rats
Conditions: rat, plasma, topical or ocular; Example 7 composition, 0.5 h after administration
experimental.endpoint: concentration at 0.5 h (ng/mL)

In [3]: df
Out[3]:
                              record_smiles   experimental_endpoint  assay_value
0  CCOC(=O)C1=C[C@]2(CC)CCCN3CCc4c(n1c1ccccc41)[C@@H]32  concentration at 0.5 h          149

---

Assay: Molsidomine concentration in plasma after transdermal application (HPLC)
Assay type: in vivo, SD rats
Conditions: rat, plasma, topical or ocular; Example 5 composition, 4 h after administration
experimental.endpoint: concentration at 4 h

                                   compound  assay_value
0  CCOC(=O)[N-]c1cn(N2CCOCC2)n[o+]1 [molsidomine, N-ethoxycarbonyl-3-morpholinosydnonimine]    451 ng/mL
